Target: HLA-B*83:01
Experiment: IEDB peptide-MHC binding, purified MHC/competitive/fluorescence; filed as Kd, often an IC50 or EC50 that approximates it; bounds were set here for any values at or beyond the usual limits of such assays
Details: source organism: Shigella flexneri 5 str. 8401
Endpoint Name: Kd (µM)

Seq: HEWKIPLLI
Endpoint Name: Kd
Number: 10.5

* * *

Target: HLA-B*40:13
Assay: IEDB peptide-MHC binding, purified MHC/competitive/fluorescence; filed as Kd, often an IC50 or EC50 that approximates it; bounds were set here for any values at or beyond the usual limits of such assays
Details: source organism: Shigella flexneri 5 str. 8401
Endpoint Name: Kd (nM)

Seq: HEWKIPLLI
Number: 10.9
